target: Human PKMYT1 (Homo sapiens); construct: Human PKMYT1 75-362 was cloned as a TEV cleavable 6xHis fusion; 6xHis (TEV cleavable) (cleaved yes); made in house; host or cells: bacterial cells; test: PKMYT1 biochemical ADP-Glo enzymatic assay; conditions: ADP-Glo; 15 nM PKMYT1 kinase domain, 500 µM ATP, 60 minutes at 26° C.; banded
Sequence (Q99640 75-362): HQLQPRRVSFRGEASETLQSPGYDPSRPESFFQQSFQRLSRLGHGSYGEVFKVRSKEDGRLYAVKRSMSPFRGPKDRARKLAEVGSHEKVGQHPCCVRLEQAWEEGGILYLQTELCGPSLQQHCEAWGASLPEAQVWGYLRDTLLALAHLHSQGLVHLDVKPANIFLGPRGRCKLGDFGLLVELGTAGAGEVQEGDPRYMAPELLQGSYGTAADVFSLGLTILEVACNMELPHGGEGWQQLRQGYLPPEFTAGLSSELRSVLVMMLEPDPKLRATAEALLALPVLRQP
OUTCOME_MEASURE: IC50

Before answering, review these 8 worked examples.
>>> print(df.to_string())
                                   molecule  outcome_measure    measured_value
0  Cc1ccc(O)c(C)c1NC(=O)c1cnc(Nc2ccn([C@@H]3CCN(C(=O)Cc4cccs4)C3)n2)s1             IC50     50 to 1000 nM
1  Cc1cc(Nc2ncc(C(=O)Nc3c(C)ccc(O)c3C)s2)n(C)n1             IC50           < 50 nM
2  Cc1ccc(O)c(C)c1NC(=O)c1cnc(Nc2cc(CN3CCN(CCO)CC3)n(C)n2)s1             IC50  1000 to 11000 nM
3  COCC(=O)N1CC[C@@H](n2ccc(Nc3ncc(C(=O)Nc4c(C)ccc(O)c4C)s3)n2)C1             IC50     50 to 1000 nM
4  Cc1ccc(O)c(C)c1NC(=O)c1cnc(Nc2cccc(NC(=O)c3ccc(F)cc3)n2)s1             IC50           < 50 nM
5  Cc1cn(-c2scnc2C)nc1Nc1ncc(C(=O)Nc2c(C)ccc(O)c2C)s1             IC50           < 50 nM
6  Cc1ccc(O)c(C)c1NC(=O)c1cnc(NCCCNC(=O)OC(C)(C)C)s1             IC50     50 to 1000 nM
7  Cc1cc(Nc2ncc(C(=O)Nc3c(C)ccc(O)c3C)s2)nc(N2CCC(F)(F)CC2)n1             IC50     50 to 1000 nM

The recorded IC50 with Human PKMYT1 (Homo sapiens) for COc1ccc(NC(=O)C(C)(C)C)nc1Nc1ncc(C(=O)Nc2c(C)ccc(O)c2C)s1.Cl [BAA-330, hydrochloride] was < 50 nM

The recorded IC50 with Human PKMYT1 (Homo sapiens) for "Cc1ccc(O)c(C)c1NC(=O)c1cnc(Nc2ccn(CC(N)=O)n2)s1" was < 50 nM

The recorded IC50 with Human PKMYT1 (Homo sapiens) for "Cc1ccc(O)c(C)c1NC(=O)c1cnc(Nc2ccn(CC(=O)N3CCC4(CCNC4)CC3)n2)s1" was < 50 nM

The recorded IC50 with Human PKMYT1 (Homo sapiens) for "Cc1ccc(O)c(C)c1NC(=O)c1cnc(Nc2cc3cc(F)ccc3cn2)s1" was 50 to 1000 nM

The recorded IC50 with Human PKMYT1 (Homo sapiens) for "Cc1ccc(O)c(C)c1NC(=O)c1cnc(Nc2ccn(CC(=O)N3CC4CCC(C3)N4C(=O)OC(C)(C)C)n2)s1" was < 50 nM

The recorded IC50 with Human PKMYT1 (Homo sapiens) for "Cc1ccc(O)c(C)c1NC(=O)c1cnc(Nc2ccn([C@@H]3CCN(C(=O)Cc4ccc(N)cc4)C3)n2)s1" was < 50 nM

The recorded IC50 with Human PKMYT1 (Homo sapiens) for "Cc1ccc(O)c(C)c1NC(=O)c1cnc(Nc2ccn([C@@H]3CCN(C(=O)Cc4ccc(N(C)C)cc4)C3)n2)s1" was 50 to 1000 nM

The recorded IC50 with Human PKMYT1 (Homo sapiens) for "Cc1ccc(O)c(C)c1NC(=O)c1cnc(Nc2ccc3cc(F)ccc3n2)s1" was 50 to 1000 nM
